target: TDP-43 (Homo sapiens, UniProt Q13148 1-414); experiment: RNA Bind-n-Seq with designed 260-mer pool; 25 mM Tris-HCl, 150 mM KCl, 3 mM MgCl2, BSA (printed 500 mg/mL), 20 units/mL SUPERase IN; pH not stated; 500 nM RNA pool, 1 h, 4 C; TDP-43 5, 50, 500 nM; high values mean tight binding; conditions: protein: recombinant; tags: SBP (GST cleaved off with PreScission; pGEX-GST-SBP)
Sequence (Q13148 whole entry): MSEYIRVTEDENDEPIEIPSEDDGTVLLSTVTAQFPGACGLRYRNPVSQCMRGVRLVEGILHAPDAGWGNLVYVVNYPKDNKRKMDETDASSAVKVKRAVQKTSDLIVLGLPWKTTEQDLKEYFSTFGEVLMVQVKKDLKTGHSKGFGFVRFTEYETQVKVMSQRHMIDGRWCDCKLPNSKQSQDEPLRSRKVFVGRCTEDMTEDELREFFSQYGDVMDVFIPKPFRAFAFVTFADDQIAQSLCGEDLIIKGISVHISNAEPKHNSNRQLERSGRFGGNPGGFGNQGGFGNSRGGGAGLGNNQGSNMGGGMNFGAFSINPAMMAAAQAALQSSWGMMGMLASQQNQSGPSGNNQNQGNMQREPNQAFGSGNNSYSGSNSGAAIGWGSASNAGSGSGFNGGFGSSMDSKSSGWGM
Whole data set: some 9,900 sequences, median “r (bound/input frequency ratio)” near 0.7, cut for the highest 2% near 6.5. This excerpt belongs to a sample that is enriched for the highest values.
# reported binding signal; entries follow

{"columns": ["binder", "valueKind", "result"],
 "data": [
  ["ENSMUSG00000004113.188|Cacna1b (ssRNA) RNA: GGGAGUUCUACAGUCCGACGAUCGCUUCGAUAUCCGCAUGCUAGCAAUGUUCCUGUAUGUUUCUACCCUGCCUGGGAUGUCCCCAAUGACCCUGGCUCCUCUGCUCAACCAAGUGCCUGAUCUCUGGCUCUGAGCAUCGUGGAUGAGGUACGGCCUCAGGAAGCAUCGGGUGGAUUGGGUGGGAGCUGCUCAGAGCAGCACGGGGGCUUGUGUCUUAGGGACAUUGACAGUGUCCAUCAGCAUGUCAGAGAAGCAGCUGUAGUGCCCGUGUUUCUCCCUGAGUCAUGGGUUCUGAAGAAGCCACUCUUGCGGUCGCACUAGUGUGGAAUUCUCGGGUGUCAAGG", "binding signal", "0.976 R (bound/input frequency ratio)"]
]}

# context switch: different binder, same binding signal
Q: Quick check: binding signal of ENSMUSG00000042529.429|Kcnj12|20:25;182:186 (ssRNA) RNA: GGGAGUUCUACAGUCCGACGAUCGCUUCGAUAUCCGCAUGCUAAUGUCAGUGGCUUGGGUGCACACACGAGAGAGAGAGAGAGAGAGAGAGAGAGAGAGAGAGAGAGAGAGAGAGAGAGCUGCACAGGAUGAAGCAGCUGCCCUGAGCCCAUCUGGUGCUGUGCACCUGGUCCUUGUCCAGCCGAGGGCCUGGGGGCAGAAGAACACACCAUAGGGAGGCCCUUCAUACGGUGUCUGCCCUAUGUGAGGUCAUAGAAUGUUAAAUCUAUUUUAAACGGUGAAACUGGAGAAUUUUCAUGUUAUCUCUUGCGGUCGCACUAGUGUGGAAUUCUCGGGUGUCAAGG ?
Ans: 5.54 R (bound/input frequency ratio)
